Hey, just so you know, these numbers are from the supplement of paper PMC11417369.

- Test system: PfAP2-I AP2 domain 3 (GST-tagged)
- test_method_notes: gcPBM binding intensity (ln(normalized median fluorescence intensity)); higher = stronger DNA binding
Over roughly 25,000 sequences, “ln(normalized median fluorescence intensity)” has its median near 7.9; the highest 2% begin near 11. Many of the other results were omitted from the sample, so the highest values are more common in it than they were.
measurement_name: gcPBM binding intensity (ln)
Number only, please.

# input Please look at this sequence and report its gcPBM binding intensity (ln): AATAATCTATATTGTACACACAAAATGGGAAAAAAA [CACACA_site6969]
# output 8.11

# input Please look at this sequence and report its gcPBM binding intensity (ln): CAAACCCACCAACACACACACACAAAAATGATTAAA [CACACA_site2432]
# output 8.03

# input Please look at this sequence and report its gcPBM binding intensity (ln): TATTATGACTTAAGTTGTACTGTTGAAAGAAGAAAA [XGTACX_site2985]
# output 7.88

# input Please look at this sequence and report its gcPBM binding intensity (ln): TTTTTTTTTTTTTCAAGTACATATATATATATATAA [XGTACX_site2098]
# output 7.99

----------
- System: PfAP2-I AP2 domain 3 (GST-tagged)
- test_method_notes: gcPBM binding intensity (ln(normalized median fluorescence intensity)); higher = stronger DNA binding
The full ranking holds about 25,000 sequences; the median of “ln(normalized median fluorescence intensity)” is about 7.9, and the highest 2% start at about 11. The entries come from a sample that favours the highest values as a whole.
measurement_name: gcPBM binding intensity (ln)
Number only, please.

# input Please look at this sequence and report its gcPBM binding intensity (ln): AAAATTAAAAATAACACACACATATATATATTTATA [CACACA_site2776]
# output 7.66

# input Please look at this sequence and report its gcPBM binding intensity (ln): TAAATCAAAATAATTTAACACACAATTTTAATACTG [CACACA_site8744]
# output 7.34

# input Please look at this sequence and report its gcPBM binding intensity (ln): TAAATTATAACGTGCACACATATTTAAAATGAAATG [CACACA_site2820]
# output 11.3

# input Please look at this sequence and report its gcPBM binding intensity (ln): TTAGTAAATACATTTGCACACATTATTTTTTAACAT [CACACA_site5448]
# output 9.36

# input Please look at this sequence and report its gcPBM binding intensity (ln): TAAACGTTAGTATGTGTGCACATTAGTAATTTAAAA
# output 9.65

----------
For each of the sequences below, state its gcPBM binding intensity (ln).
- Tested on: PfAP2-I AP2 domain 3 (GST-tagged)
- test_method_notes: gcPBM binding intensity (ln(normalized median fluorescence intensity)); higher = stronger DNA binding
In all, about 25,000 sequences were measured (“ln(normalized median fluorescence intensity)”: median about 7.9, highest 2% from about 11 on). Many of the other results were omitted from the sample, so the highest values are more common in it than they were.
Number only, please.

# input Please look at this sequence and report its gcPBM binding intensity (ln): AAAAATAAAGAAACAGGTACGCATATATTAAGATAT [XGTACX_site8097]
# output 7.98

# input Please look at this sequence and report its gcPBM binding intensity (ln): TAAAACACTCATGGCACACATAAAACATTTTTATGA [CACACA_site3574]
# output 8.18

# input Please look at this sequence and report its gcPBM binding intensity (ln): AAAATTAAAATACGTACACACCTTATCTTTTTGGCT [CACACA_site4311]
# output 8.21

# input Please look at this sequence and report its gcPBM binding intensity (ln): TAAAAAATTTTCGCGTGTACGCAAGAAAAAAAAAAT [XGTACX_site3058]
# output 8.04

# input Please look at this sequence and report its gcPBM binding intensity (ln): GAGTGAAATATGCAAACACACACGAGAAAAATGTAT [CACACA_site3196]
# output 8.09

# input Please look at this sequence and report its gcPBM binding intensity (ln): AATAATATATATATATATATATATAGATATGTATAT [GTGCAC_negctrl_site653]
# output 8.04

# input Please look at this sequence and report its gcPBM binding intensity (ln): TTGATATATAATAATACACACTTACATAATTAATTA [CACACA_site4320]
# output 7.88

# input Please look at this sequence and report its gcPBM binding intensity (ln): AAATATAATTAATGATGTACACTTATAGATATTGAT [XGTACX_site8435]
# output 8.09

# input Please look at this sequence and report its gcPBM binding intensity (ln): AGATATTATAATTAATGTACAAAAAGAAAAAATAGA [XGTACX_site8964]
# output 7.86

# input Please look at this sequence and report its gcPBM binding intensity (ln): ACTTATTTCGATATGTGTACTTAATATATATATTTA [XGTACX_site6616]
# output 7.89

# input Please look at this sequence and report its gcPBM binding intensity (ln): AAATAAAAAAGTAGTACACACTTCACGATATTTTTT [CACACA_site6015]
# output 7.89
